Quick reference for Ki among some compounds
# System under test: Ileal sodium/bile acid cotransporter (Homo sapiens)
# Sequence (Q12908 whole entry): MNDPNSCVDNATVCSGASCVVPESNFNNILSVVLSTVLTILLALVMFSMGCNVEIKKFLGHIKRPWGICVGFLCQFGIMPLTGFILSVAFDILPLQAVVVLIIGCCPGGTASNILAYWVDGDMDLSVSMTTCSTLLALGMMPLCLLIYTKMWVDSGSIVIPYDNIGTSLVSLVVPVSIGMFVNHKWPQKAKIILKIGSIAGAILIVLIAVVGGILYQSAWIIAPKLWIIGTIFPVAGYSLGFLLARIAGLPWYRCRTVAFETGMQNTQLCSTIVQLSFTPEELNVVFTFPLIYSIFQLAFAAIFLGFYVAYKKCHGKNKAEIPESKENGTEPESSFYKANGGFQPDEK
# Measurement description: Inhibition of human ASBT expressed in MDCK cells assessed as inhibition of [3H]taurocholic acid uptake after 10 mins by liquid scintillation counting

| Smiles data | Ki / µM |
| --- | --- |
| C[C@H](CCC(=O)N[C@@H](CCC(=O)Nc1ccc(N)cc1)C(=O)O)[C@H]1CC[C@H]2[C@@H]3[C@H](O)C[C@H]4C[C@H](O)CC[C@]4(C)[C@H]3CC[C@]12C | 15.9 |
| COC(=O)c1ccccc1NC(=O)CC[C@H](NC(=O)CC[C@@H](C)[C@H]1CC[C@H]2[C@@H]3[C@H](O)C[C@H]4C[C@H](O)CC[C@]4(C)[C@H]3CC[C@]12C)C(=O)O | 2.3 |
| C[C@H](CCC(=O)N[C@@H](CCC(=O)Nc1ccccc1N)C(=O)O)[C@H]1CC[C@H]2[C@@H]3[C@H](O)C[C@H]4C[C@H](O)CC[C@]4(C)[C@H]3CC[C@]12C | 2.64 |
| C[C@H](CCC(=O)N[C@@H](CCC(=O)Nc1ccccc1C(=O)O)C(=O)O)[C@H]1CC[C@H]2[C@@H]3[C@H](O)C[C@H]4C[C@H](O)CC[C@]4(C)[C@H]3CC[C@]12C | 40.4 |
| Cc1cccc(C)c1NC(=O)CC[C@H](NC(=O)CC[C@@H](C)[C@H]1CC[C@H]2[C@@H]3[C@H](O)C[C@H]4C[C@H](O)CC[C@]4(C)[C@H]3CC[C@]12C)C(=O)O | 8.07 |
